- study system: Recombinant Human PSMA/FOLH1 Protein (Homo sapiens (Human), UniProt Q04609)
- Sequence (Q04609 whole entry): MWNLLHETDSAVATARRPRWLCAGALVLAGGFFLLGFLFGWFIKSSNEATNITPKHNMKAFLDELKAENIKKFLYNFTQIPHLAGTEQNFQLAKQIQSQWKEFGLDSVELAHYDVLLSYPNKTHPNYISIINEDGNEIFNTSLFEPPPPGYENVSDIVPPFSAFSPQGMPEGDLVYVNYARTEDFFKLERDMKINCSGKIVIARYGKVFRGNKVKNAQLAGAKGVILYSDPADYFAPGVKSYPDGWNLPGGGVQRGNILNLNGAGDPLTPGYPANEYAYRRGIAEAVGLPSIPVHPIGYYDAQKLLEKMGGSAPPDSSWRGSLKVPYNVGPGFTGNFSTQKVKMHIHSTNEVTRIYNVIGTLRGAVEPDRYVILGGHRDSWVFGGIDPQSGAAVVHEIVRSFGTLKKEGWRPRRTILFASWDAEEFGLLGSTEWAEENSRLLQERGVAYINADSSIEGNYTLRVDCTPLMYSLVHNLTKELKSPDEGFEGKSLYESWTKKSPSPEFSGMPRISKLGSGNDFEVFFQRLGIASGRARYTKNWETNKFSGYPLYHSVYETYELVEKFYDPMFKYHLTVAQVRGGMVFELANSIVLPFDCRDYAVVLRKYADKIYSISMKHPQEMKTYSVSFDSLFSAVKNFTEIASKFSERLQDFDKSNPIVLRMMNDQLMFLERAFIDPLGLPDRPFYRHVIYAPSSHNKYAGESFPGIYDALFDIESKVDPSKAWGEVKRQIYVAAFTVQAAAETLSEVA
- assay remarks: Inhibition assay (Amplex Red glutamic acid/glutamate oxidase, NAAG substrate)
- condition context: Target PSMA; average of N replicates; PSMA 5 nM, NAAG 40 μM
pIC50: −log10 of the molar value.
Classification field: enter 1 (yes) for pIC50 values not below 4, 0 (no) for values below it.

### Prompt hey, is pIC50 for this one >= 4? `CC(=O)NCCOCCOCCOCCC(=O)NC[C@H]1CC[C@H](C(=O)N[C@@H](Cc2ccc3ccccc3c2)C(=O)NCCCC[C@H](NC(=O)N[C@@H](CC(C)C)C(=O)O)C(=O)O)CC1`
### Response 0 (no)

### Prompt // next record `CC(=O)NCCOCCOCCOCCC(=O)NC[C@H]1CC[C@H](C(=O)N[C@@H](Cc2ccc(OCc3ccccc3)cc2)C(=O)NCCCC[C@H](NC(=O)N[C@@H](CCC(=O)O)C(=O)O)C(=O)O)CC1`
### Response 1 (yes)

### Prompt // next record `CC(=O)NCCOCCOCCOCCC(=O)NC[C@H]1CC[C@H](C(=O)N[C@@H](CCCCN)C(=O)NCCCC[C@H](NC(=O)N[C@@H](CCC(=O)O)C(=O)O)C(=O)O)CC1`
### Response 1 (yes)

### Prompt // next record `CC(=O)NCCOCCOCCOCCC(=O)NC[C@H]1CC[C@H](C(=O)N[C@@H](Cc2ccc(F)cc2)C(=O)NCCCC[C@H](NC(=O)N[C@@H](CCC(=O)O)C(=O)O)C(=O)O)CC1`
### Response 1 (yes)

### Prompt // next record `CC(=O)NCCOCCOCCOCCC(=O)NC[C@H]1CC[C@H](C(=O)N[C@@H](CC2CCCCC2)C(=O)NCCCC[C@H](NC(=O)N[C@@H](CCC(=O)O)C(=O)O)C(=O)O)CC1`
### Response 1 (yes)
